Tested on: PXR:RXRa (NR concentration 270 nM, RXRa partner concentration 90 nM)
Assay method text: PBM binding z-score (relative to random genomic background probes); higher = stronger binding; sequences stand for … in GC…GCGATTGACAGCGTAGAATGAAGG
Property measured: PBM binding z-score

Inquiry: Any idea what its PBM binding z-score is? The sequence is GATACAGGGTCAAGGCCAGTGTACGCGTATTGAT
Reply text: 3.97

Inquiry: For the sequence shown here, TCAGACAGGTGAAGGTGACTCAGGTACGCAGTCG , give the reported PBM binding z-score.
Reply text: 0.711

Inquiry: Name the recorded PBM binding z-score for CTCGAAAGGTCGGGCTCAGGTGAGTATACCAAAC .
Reply text: 1.64

Inquiry: What does the data say about its PBM binding z-score? Entry: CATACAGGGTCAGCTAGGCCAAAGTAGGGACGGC
Reply text: 2.55

Inquiry: # input sequence: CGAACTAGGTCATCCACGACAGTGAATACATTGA ; wanted: its PBM binding z-score
Reply text: 1.59

Inquiry: Query (sequence): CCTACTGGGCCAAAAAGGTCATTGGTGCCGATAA ; field requested: PBM binding z-score
Reply text: 4.9

Inquiry: Any idea what PBM binding z-score was measured for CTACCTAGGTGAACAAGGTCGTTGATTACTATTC ?
Reply text: 2.25

Inquiry: I am curious: what PBM binding z-score value has been reported for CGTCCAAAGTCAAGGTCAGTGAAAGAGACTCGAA ?
Reply text: 2.05

Inquiry: State the recorded PBM binding z-score for this entry: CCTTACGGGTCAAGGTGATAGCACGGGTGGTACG
Reply text: 2.89

Inquiry: Sample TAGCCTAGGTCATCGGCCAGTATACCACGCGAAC — what was its PBM binding z-score?
Reply text: 1.62

Inquiry: // PBM binding z-score lookup, key: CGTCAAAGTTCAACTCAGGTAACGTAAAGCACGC
Reply text: 5.4

Inquiry: GET /values?readout=PBM binding z-score&item= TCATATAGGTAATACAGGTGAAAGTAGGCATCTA
Reply text: 0.952

* * *

Tested on: LXRa:RXRa (NR concentration 270 nM, RXRa partner concentration 90 nM)
Assay method text: PBM binding z-score (relative to random genomic background probes); higher = stronger binding; sequences stand for … in GC…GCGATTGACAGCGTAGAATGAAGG
Grouping by measured PBM binding z-score is done with the following cut points: Low = under 0.3, Mid = from 0.3 up to 2, High = 2 and over

Inquiry: Category of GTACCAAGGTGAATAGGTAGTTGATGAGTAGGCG , please.
Reply text: Low

Inquiry: Categorize the following entry: GGAACGAGGGCGAGTTGATAGCAGAGTTTGATGG
Reply text: Low

Inquiry: Tag the class for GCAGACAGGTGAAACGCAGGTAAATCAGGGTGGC
Reply text: Low

Inquiry: Input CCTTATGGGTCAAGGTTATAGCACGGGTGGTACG ; output its category
Reply text: High

Inquiry: Form: Item = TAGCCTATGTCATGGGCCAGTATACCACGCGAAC ; Class = ?
Reply text: Low

Inquiry: State the class of the sequence shown: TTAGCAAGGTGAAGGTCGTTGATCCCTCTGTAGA
Reply text: Mid

Inquiry: Note: place this sequence into its band. Item: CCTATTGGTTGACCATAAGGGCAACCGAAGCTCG
Reply text: Low

Inquiry: Input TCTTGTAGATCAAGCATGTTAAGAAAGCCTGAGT ; output its category
Reply text: Mid

Inquiry: Looking at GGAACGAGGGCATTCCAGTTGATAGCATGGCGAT , which class would you pick?
Reply text: Mid

Inquiry: # bin label for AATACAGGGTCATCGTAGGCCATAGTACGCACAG
Reply text: High

Inquiry: Which category fits this record: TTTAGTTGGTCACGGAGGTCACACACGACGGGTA
Reply text: High

Inquiry: Which category does the recorded PBM binding z-score put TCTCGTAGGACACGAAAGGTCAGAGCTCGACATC in?
Reply text: High

Inquiry: Assign a category based on measured PBM binding z-score for ATCTCTTGGTAAAGTTCAGTGAAAGATCGATAGA and give only the class name.
Reply text: High

Inquiry: Which category fits this record: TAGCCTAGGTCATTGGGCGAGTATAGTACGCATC
Reply text: High

Inquiry: Please report the category associated with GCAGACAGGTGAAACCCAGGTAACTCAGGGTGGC , nothing else.
Reply text: Low

Inquiry: Would you mind sorting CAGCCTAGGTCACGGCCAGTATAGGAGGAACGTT into the appropriate category?
Reply text: High

Inquiry: Lab note: which band did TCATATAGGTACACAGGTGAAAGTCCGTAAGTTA land in?
Reply text: Mid

Inquiry: // bin(item) where item = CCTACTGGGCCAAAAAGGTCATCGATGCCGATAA
Reply text: High

Inquiry: Which PBM binding z-score category applies to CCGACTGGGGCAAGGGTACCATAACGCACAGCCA here?
Reply text: Low

Inquiry: Category of CCTCGGATGACAGAAGGTCAGAGCTGTCCGCTTT , please.
Reply text: Mid

Inquiry: # bin lookup: classify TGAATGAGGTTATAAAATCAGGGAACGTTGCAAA by its PBM binding z-score
Reply text: Mid

Inquiry: Field: class (PBM binding z-score) — entry: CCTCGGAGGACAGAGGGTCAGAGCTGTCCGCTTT
Reply text: Mid

Inquiry: Please classify: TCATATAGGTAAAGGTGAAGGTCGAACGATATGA
Reply text: Mid

Inquiry: Into which category would you place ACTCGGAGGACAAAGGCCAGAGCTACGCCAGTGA ?
Reply text: Low

* * *

Exercise: for every item that follows, state its recorded PBM binding z-score.
System: LXRb homodimer (NR concentration 270 nM)
Assay method text: PBM binding z-score (relative to random genomic background probes); higher = stronger binding; sequences stand for … in GC…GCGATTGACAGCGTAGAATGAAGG
Please reply with the number alone, leaving off any unit.

Inquiry: Test system LXRb homodimer (NR concentration 270 nM); read-out PBM binding z-score; what value for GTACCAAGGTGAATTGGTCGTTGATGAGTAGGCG ?
Reply text: -0.792

Inquiry: Lab note: need PBM binding z-score for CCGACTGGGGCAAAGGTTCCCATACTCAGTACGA on LXRb homodimer (NR concentration 270 nM), anyone have it?
Reply text: -1.02

Inquiry: # value lookup — system LXRb homodimer (NR concentration 270 nM), readout PBM binding z-score, item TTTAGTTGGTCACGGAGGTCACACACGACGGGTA
Reply text: 1.48

Inquiry: Enter reported PBM binding z-score observed with LXRb homodimer (NR concentration 270 nM) for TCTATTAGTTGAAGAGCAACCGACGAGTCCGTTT
Reply text: 0.0793

Inquiry: Please provide the recorded PBM binding z-score for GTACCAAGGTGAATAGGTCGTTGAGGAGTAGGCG , tested on LXRb homodimer (NR concentration 270 nM).
Reply text: -0.56

Inquiry: Form field: PBM binding z-score recorded for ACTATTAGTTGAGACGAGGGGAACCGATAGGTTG with LXRb homodimer (NR concentration 270 nM) (enter value)
Reply text: 0.604

* * *

Tested on: RARg:RXRa (NR concentration 270 nM, RXRa partner concentration 90 nM)
Assay method text: PBM binding z-score (relative to random genomic background probes); higher = stronger binding; sequences stand for … in GC…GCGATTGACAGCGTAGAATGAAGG
Property measured: PBM binding z-score
Number, no unit, nothing else.

Inquiry: Which value of PBM binding z-score has been reported for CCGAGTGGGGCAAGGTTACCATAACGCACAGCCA in the records?
Reply text: 1.07

Inquiry: Value lookup for PBM binding z-score; key = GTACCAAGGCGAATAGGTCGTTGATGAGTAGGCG
Reply text: 0.265

Inquiry: # input sequence: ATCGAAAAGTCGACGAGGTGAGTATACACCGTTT ; wanted: its PBM binding z-score
Reply text: 0.532

Inquiry: If you can, please state the reported PBM binding z-score value of CAAACTAGGTCACGAAAGGTCAAAGTCGAATGAC .
Reply text: 7.91

Inquiry: Request the reported PBM binding z-score associated with ACTATTAGTTGAGACGAGGTCAACCGATAGGTTG
Reply text: 3.81

Inquiry: Form field: reported PBM binding z-score of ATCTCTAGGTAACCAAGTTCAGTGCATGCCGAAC
Reply text: 0.735

Inquiry: Param item = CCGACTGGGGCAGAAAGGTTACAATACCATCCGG ; retrieve measured PBM binding z-score.
Reply text: 1.59

Inquiry: Endpoint output: PBM binding z-score of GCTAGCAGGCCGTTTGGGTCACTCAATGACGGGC . Value?
Reply text: 0.678

Inquiry: Quick one: PBM binding z-score of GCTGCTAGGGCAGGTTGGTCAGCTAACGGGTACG ?
Reply text: -0.148

Inquiry: Suppose we examine the sequence GCGACTGGGGCATCCGCAGGTTACCATAACTTAA ; what PBM binding z-score value has been reported?
Reply text: 1.31

Inquiry: Fill in: PBM binding z-score of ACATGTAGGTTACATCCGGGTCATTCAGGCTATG is ___
Reply text: 3.84

Inquiry: Reported PBM binding z-score, sequence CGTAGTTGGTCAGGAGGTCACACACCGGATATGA : ____
Reply text: 5.01

Inquiry: What PBM binding z-score value was documented for this sequence, CCTAGCAGGACAATCTGGGTCACTCAAGGCTTGA ?
Reply text: 1.2

Inquiry: Suppose we examine the sequence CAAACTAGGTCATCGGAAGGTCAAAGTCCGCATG ; what PBM binding z-score value has been reported?
Reply text: 8.08

Inquiry: Name the recorded PBM binding z-score for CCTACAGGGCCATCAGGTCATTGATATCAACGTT .
Reply text: 2.63

Inquiry: Quick one: PBM binding z-score for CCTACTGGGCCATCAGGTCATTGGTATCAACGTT ?
Reply text: 1.93

Inquiry: What value of PBM binding z-score has been recorded for this entry: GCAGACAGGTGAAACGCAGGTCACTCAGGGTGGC
Reply text: 5.21

Inquiry: Data request, read-out PBM binding z-score, for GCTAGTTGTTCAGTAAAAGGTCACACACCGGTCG
Reply text: 4.7

Inquiry: // PBM binding z-score lookup, key: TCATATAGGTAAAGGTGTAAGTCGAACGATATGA
Reply text: 0.365

Inquiry: Query: PBM binding z-score; subject: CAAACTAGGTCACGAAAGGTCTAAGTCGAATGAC
Reply text: 5.04

Inquiry: Which PBM binding z-score reading was recorded for the sequence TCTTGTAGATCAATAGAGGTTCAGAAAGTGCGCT ?
Reply text: 0.234

Inquiry: Fill blank: measured PBM binding z-score of the sequence TCTAACAGGCCAGAGGGTCACTCAAGAGGTACGG is ____.
Reply text: 2.78

Inquiry: Could you share which PBM binding z-score value was measured for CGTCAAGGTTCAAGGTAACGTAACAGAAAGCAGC ?
Reply text: 3.11

Inquiry: Record request: PBM binding z-score value, item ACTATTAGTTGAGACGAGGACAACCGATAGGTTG
Reply text: 0.27

Inquiry: If you can, please state the reported PBM binding z-score value of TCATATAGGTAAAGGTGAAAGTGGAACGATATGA .
Reply text: 1.71

Inquiry: What does the record list as PBM binding z-score for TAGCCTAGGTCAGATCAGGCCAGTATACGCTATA ?
Reply text: 2.81
